- Experiment Description: chemical genetic growth profiling, strain panel (AID 1159580);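 note: tested at 20 µM; growth read once vehicle control cultures reached saturation at 30 °C; lower values mean less growth of the strain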
- Study Conditions: S. cerevisiae deletion strains, growth OD, locus YJL115W, strain asf1
In all, about 5,500 compounds went through this assay and about 2,000 (36%) were called active. Another 18% or so got no clear call; they are omitted. Cut-off read from the data, not from the text of the source: active = normalized growth mostly below about 0.91 (no sharp cut-off); inconclusive = no clear call, values can overlap the other calls; inactive = mostly above about 0.92. The list shows a part of the results. Where a SMILES comes first, the peptide text is derived from it.
Possible outcomes: active, inactive

[
  {
    "Molecule": "COc1cc(C)c2c(=O)cc(-c3ccccc3)oc2c1",
    "Assigned Category": "inactive"
  },
  {
    "Molecule": "CC(=O)O[C@@H]1CC2C(C)(C)[C@H](O)C=C[C@]2(C)C2CC[C@@]3(C)[C@H](c4ccoc4)OC(=O)C4OC43[C@@]21C (stereo partly specified)",
    "Assigned Category": "inactive"
  },
  {
    "Molecule": "Clc1ccc(C(Cn2ccnc2)OCc2ccsc2Cl)c(Cl)c1 (stereo unspecified)",
    "Assigned Category": "active"
  },
  {
    "Molecule": "COC(=O)[C@@H]1OC(=O)C2OC23[C@@]1(C)CCC1[C@]2(C)C(C[C@@H](O)[C@]13C)C(C)(C)[C@H](OC(C)=O)C[C@@H]2OC(C)=O (stereo partly specified)",
    "Assigned Category": "inactive"
  },
  {
    "Molecule": "COC[C@]12CN(C=O)C3[C@@H]4[C@H](OC)C1[C@]3(C1CC3(O)C(OC)C(O)C4(OC(C)=O)C1C3OC(=O)c1ccccc1)[C@@H](OC)C[C@H]2O (stereo partly specified)",
    "Assigned Category": "inactive"
  },
  {
    "Molecule": "COC(=O)/C(C)=C\\CC12OC(C)(C)C3CC(C=C4C(=O)c5c(OC)c6c(c(CC=C(C)C)c5OC431)OC(C)(CCC=C(C)C)C=C6)C2=O (stereo unspecified)",
    "Assigned Category": "inactive"
  },
  {
    "Molecule": "O=C(O)C1CCCNC1 (stereo unspecified)",
    "Assigned Category": "inactive"
  },
  {
    "Molecule": "O=c1oc2ccccc2cc1O",
    "Assigned Category": "inactive"
  },
  {
    "Molecule": "CC12CCC3C(=CCc4cc(O)ccc43)C1CCC2=O (stereo unspecified)",
    "Assigned Category": "inactive"
  },
  {
    "Molecule": "CC(=O)O[C@@H]1CC2C(C)(C)[C@@H](O)CC[C@]2(C)C2CC[C@@]3(C)[C@H](c4ccoc4)OC(=O)[C@H]4O[C@]43[C@@]21C (stereo partly specified)",
    "Assigned Category": "inactive"
  },
  {
    "Molecule": "CC12CCCCC1(Br)[N+](=O)N2[O-] (stereo unspecified)",
    "Assigned Category": "inactive"
  },
  {
    "Molecule": "O=C(O)[C@@H](S)[C@@H](S)C(=O)O",
    "Assigned Category": "inactive"
  },
  {
    "Molecule": "CC(=O)C1CCC2C3CCC4C[C@H](O)CCC4(C)C3C[C@H](O)C12C (stereo partly specified)",
    "Assigned Category": "inactive"
  },
  {
    "Molecule": "Clc1ccc(C(c2ccccc2Cl)C(Cl)Cl)cc1 (stereo unspecified)",
    "Assigned Category": "inactive"
  },
  {
    "Molecule": "C[C@@H]1CC2C3CCC4=CC(=O)C=C[C@]4(C)[C@@]3(F)[C@@H](O)C[C@]2(C)[C@@]1(O)C(=O)CO (stereo partly specified)",
    "Assigned Category": "inactive"
  },
  {
    "Molecule": "C[C@]12CCC3c4ccc(O)cc4CCC3C1CCC2=O (stereo partly specified)",
    "Assigned Category": "inactive"
  },
  {
    "Molecule": "CC(=O)N[C@@H](CCC(=O)O)C(=O)O",
    "Assigned Category": "inactive"
  },
  {
    "Molecule": "NC(C(=O)O)C(O)C(=O)O (stereo unspecified)",
    "Assigned Category": "inactive"
  },
  {
    "Molecule": "C=NC(C(=O)NC1C(=O)N2C1SC(C)(C)C2C(=O)O)c1ccccc1 (stereo unspecified)",
    "Assigned Category": "inactive"
  },
  {
    "Molecule": "CC1[C@H](C)OC(=O)CC(O)CC(O)CC(O)CCC(O)C(O)C[C@]2(O)CC(O)C(C(=O)O)C(CC(OC3O[C@H](C)[C@@H](O)[C@H](N)[C@@H]3O)/C=C/C=C/C=C/C=C/CC/C=C/C=C/[C@H](C)[C@H]1O)O2 (stereo partly specified)",
    "Assigned Category": "active"
  },
  {
    "Molecule": "COc1ccc2c(c1)OCC(Cc1ccc(OC)c(OC(C)=O)c1)C2=O (stereo unspecified)",
    "Assigned Category": "inactive"
  },
  {
    "Molecule": "CC(C)c1nc(N(C)S(C)(=O)=O)nc(-c2ccc(F)cc2)c1/C=C/[C@@H](O)C[C@@H](O)CC(=O)O",
    "Assigned Category": "inactive"
  },
  {
    "Molecule": "CN[C@@H]1C(OC2[C@H](O[C@H]3[C@H](O)[C@@H](O)[C@H](N=C(N)N)[C@@H](O)[C@@H]3N=C(N)N)OC(C)[C@]2(O)CO)OC(CO)C(O)C1O (stereo partly specified)",
    "Assigned Category": "inactive"
  },
  {
    "Molecule": "CC(=O)N[C@@H](CC(=O)O)C(=O)N[C@@H](CCC(=O)O)C(=O)O (Ac-Asp-Glu-OH)",
    "Assigned Category": "inactive"
  },
  {
    "Molecule": "CC1(C)N([O-])[N+](=O)C1(C)Br (stereo unspecified)",
    "Assigned Category": "inactive"
  },
  {
    "Molecule": "COc1ccc2c(c1)OCC(Cc1ccc(OC)c(OC)c1)C2=O (stereo unspecified)",
    "Assigned Category": "inactive"
  },
  {
    "Molecule": "C[C@@H]1CC[C@H]2C(C)(C)C3CC12CC[C@@]3(C)O (stereo partly specified)",
    "Assigned Category": "inactive"
  },
  {
    "Molecule": "Cc1nnc(NS(=O)(=O)c2ccc(N)cc2)s1",
    "Assigned Category": "inactive"
  },
  {
    "Molecule": "CC(=O)O[C@H]1C[C@@H](OC(C)=O)C(C)(C)C2C[C@@H](OC(C)=O)[C@]3(C)C(CC[C@@]4(C)[C@H](c5ccoc5)OC(=O)[C@H]5O[C@]543)[C@]21C (stereo partly specified)",
    "Assigned Category": "inactive"
  },
  {
    "Molecule": "CC(=O)Oc1ccc2c(c1)CCC1C2CC[C@]2(C)C(=O)CCC12 (stereo partly specified)",
    "Assigned Category": "inactive"
  },
  {
    "Molecule": "CC(=O)O[C@H]1CC[C@@]2(C)C(C[C@@H](OC(C)=O)[C@]3(C)C2CC[C@@]2(C)[C@H](c4ccoc4)OC(=O)[C@H]4O[C@]423)C1(C)C (stereo partly specified)",
    "Assigned Category": "inactive"
  },
  {
    "Molecule": "CC(C)(S)[C@@H](N)C(=O)O",
    "Assigned Category": "inactive"
  },
  {
    "Molecule": "FC(F)(F)c1cccc(N2CCNCC2)c1",
    "Assigned Category": "inactive"
  },
  {
    "Molecule": "COc1ccc2c(c1)OCC(Cc1ccc(OC)c(O)c1)C2=O (stereo unspecified)",
    "Assigned Category": "inactive"
  },
  {
    "Molecule": "CC(=O)O[C@H]1C[C@@H](OC(C)=O)C(C)(C)C2C[C@@H](O)[C@]3(C)C(CC[C@@]4(C)[C@H](c5ccoc5)OC(=O)[C@H]5O[C@]543)[C@]21C (stereo partly specified)",
    "Assigned Category": "inactive"
  },
  {
    "Molecule": "CC(=O)O[C@@H]1CC2C(C)(C)[C@H](O)CC[C@]2(C)C2CC[C@@]3(C)[C@H](c4ccoc4)OC(=O)C4OC43[C@@]21C (stereo partly specified)",
    "Assigned Category": "inactive"
  }
]
